biological target: HCV NS3-4A serine protease (full-length NS3-4A protein, genotype 1a, strain HCV-1) (Hepatitis C virus genotype 1a, UniProt P26664); construct: using the full-length NS3-4A protein (genotype 1a, strain HCV-1); assay: HCV NS3-4A protease assay; assay type: biochemical; conditions: Protease IC50
Sequence (P26664 1658-1711): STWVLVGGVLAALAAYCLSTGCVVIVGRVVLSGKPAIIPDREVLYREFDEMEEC
Sequence (P26664 1027-1657): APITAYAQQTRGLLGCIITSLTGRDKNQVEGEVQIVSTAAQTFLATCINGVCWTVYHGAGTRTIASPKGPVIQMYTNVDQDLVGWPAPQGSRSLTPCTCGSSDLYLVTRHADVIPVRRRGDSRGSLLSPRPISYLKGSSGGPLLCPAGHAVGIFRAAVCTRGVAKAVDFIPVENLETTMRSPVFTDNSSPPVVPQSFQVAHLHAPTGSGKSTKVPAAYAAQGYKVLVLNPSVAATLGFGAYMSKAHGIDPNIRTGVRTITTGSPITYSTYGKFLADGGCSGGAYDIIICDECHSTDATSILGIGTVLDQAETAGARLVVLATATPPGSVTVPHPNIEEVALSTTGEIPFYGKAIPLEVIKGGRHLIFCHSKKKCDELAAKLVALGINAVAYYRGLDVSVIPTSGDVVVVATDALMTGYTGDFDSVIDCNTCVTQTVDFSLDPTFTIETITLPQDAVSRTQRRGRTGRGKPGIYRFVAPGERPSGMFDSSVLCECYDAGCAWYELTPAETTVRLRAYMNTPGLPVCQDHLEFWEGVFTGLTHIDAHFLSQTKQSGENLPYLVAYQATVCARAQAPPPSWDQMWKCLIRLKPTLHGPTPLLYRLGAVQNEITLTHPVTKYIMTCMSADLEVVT
attribute-measured: pIC50
Give bare numbers, as −log10 of the molar value.

// solved cases for pIC50 follow
smiles-entry	pIC50
C=C[C@H]1C[C@@]1(NC(=O)[C@@H]1C[C@@]2(CN1C(=O)[C@@H](NC(=O)[C@@H](NC(=O)C(C)(C)N1CCCCC1)C1CCCCC1)C(C)(C)C)C(C)(C)C21CCC1)C(=O)NS(=O)(=O)C1CC1	9.15
C=C[C@@H]1C[C@]1(NC(=O)[C@@H]1C[C@@]2(CN1C(=O)[C@@H](NC(=O)[C@@H](NC(=O)[C@@H]1CCCN1C(C)C)C1CCCCC1)C(C)(C)C)C(C)(C)C21CCC1)C(=O)NS(=O)(=O)C1(C)CC1	8.70
C=C[C@@H]1C[C@]1(NC(=O)[C@@H]1C[C@@]2(CN1C(=O)[C@@H](NC(=O)[C@@H](NC(=O)[C@@H]1CCCCN1C(C)C)C1CCCCC1)C(C)(C)C)C(C)(C)C21CCC1)C(=O)NS(=O)(=O)C1(CCC)CC1	8.40

With those in mind, consider the next molecule.
Endpoint output: pIC50 of CC[C@@H]1C[C@]1(NC(=O)[C@@H]1C[C@@]2(CN1C(=O)[C@@H](NC(=O)[C@@H](NC(=O)[C@@H]1CCCCN1CC)C1CCCCC1)C(C)(C)C)C(C)(C)C21CCC1)C(=O)NS(=O)(=O)C1(C)CC1 . Value?
8.60

###

I'd appreciate it if you could supply bioavailability values for the items below.
assay: in vivo; set-up: species or system Sprague Dawley rats; conditions: Sprague Dawley, rat
Give bare numbers, in %.

smiles-entry	reported
CC[C@@H]1C[C@]1(NC(=O)[C@@H]1C[C@@]2(CN1C(=O)[C@@H](NC(=O)[C@@H](NC(=O)[C@@H]1CCCN1CC)C1CCCCC1)C(C)(C)C)C(C)(C)C21CCC1)C(=O)NS(=O)(=O)C1(C)CC1	22

Please examine the following record next.
Would you mind telling me what bioavailability value was observed for CC[C@@H]1C[C@]1(NC(=O)[C@@H]1C[C@@]2(CN1C(=O)[C@@H](NC(=O)[C@@H](NC(=O)[C@@H]1CCCCN1CC)C1CCCCC1)C(C)(C)C)C(C)(C)C21CCC1)C(=O)NS(=O)(=O)C1(C)CC1 ?
26

###

What solubility at 24 h was measured for each of the following?
experiment: Measurement of thermodynamic solubility; format: physicochemical; settings: pH 6.8, aqueous buffer, thermodynamic from solid; pH of about 6.8; read-out: solubility in water

smiles-entry	attribute-measured	reported
CCCC1(S(=O)(=O)NC(=O)[C@@]2(NC(=O)[C@@H]3C[C@@]4(CN3C(=O)[C@@H](NC(=O)[C@@H](NC(=O)[C@@H]3CCCCN3C(C)C)C3CCCCC3)C(C)(C)C)C(C)(C)C43CCC3)C[C@H]2CC)CC1	solubility at 24 h	≥ 30 µM

Query: solubility at 24 h; subject: CC[C@@H]1C[C@]1(NC(=O)[C@@H]1C[C@@]2(CN1C(=O)[C@@H](NC(=O)[C@@H](NC(=O)[C@@H]1CCCN1C(C)C)C1CCCCC1)C(C)(C)C)C(C)(C)C21CCC1)C(=O)NS(=O)(=O)C1(C)CC1
≥ 30 µM
